target: EBNA1 395-641;USP7 (Epstein-Barr virus;human?) (UniProt P03211+Q93009); assay: EMSA; details: 20 mM Tris pH 7.5, 200 mM NaCl, 1 ug salmon sperm DNA, 10 fmol probe, 20 ul, room temperature 10 min; 10% polyacrylamide gel
Sequence (Q93009 whole entry, one chain of several): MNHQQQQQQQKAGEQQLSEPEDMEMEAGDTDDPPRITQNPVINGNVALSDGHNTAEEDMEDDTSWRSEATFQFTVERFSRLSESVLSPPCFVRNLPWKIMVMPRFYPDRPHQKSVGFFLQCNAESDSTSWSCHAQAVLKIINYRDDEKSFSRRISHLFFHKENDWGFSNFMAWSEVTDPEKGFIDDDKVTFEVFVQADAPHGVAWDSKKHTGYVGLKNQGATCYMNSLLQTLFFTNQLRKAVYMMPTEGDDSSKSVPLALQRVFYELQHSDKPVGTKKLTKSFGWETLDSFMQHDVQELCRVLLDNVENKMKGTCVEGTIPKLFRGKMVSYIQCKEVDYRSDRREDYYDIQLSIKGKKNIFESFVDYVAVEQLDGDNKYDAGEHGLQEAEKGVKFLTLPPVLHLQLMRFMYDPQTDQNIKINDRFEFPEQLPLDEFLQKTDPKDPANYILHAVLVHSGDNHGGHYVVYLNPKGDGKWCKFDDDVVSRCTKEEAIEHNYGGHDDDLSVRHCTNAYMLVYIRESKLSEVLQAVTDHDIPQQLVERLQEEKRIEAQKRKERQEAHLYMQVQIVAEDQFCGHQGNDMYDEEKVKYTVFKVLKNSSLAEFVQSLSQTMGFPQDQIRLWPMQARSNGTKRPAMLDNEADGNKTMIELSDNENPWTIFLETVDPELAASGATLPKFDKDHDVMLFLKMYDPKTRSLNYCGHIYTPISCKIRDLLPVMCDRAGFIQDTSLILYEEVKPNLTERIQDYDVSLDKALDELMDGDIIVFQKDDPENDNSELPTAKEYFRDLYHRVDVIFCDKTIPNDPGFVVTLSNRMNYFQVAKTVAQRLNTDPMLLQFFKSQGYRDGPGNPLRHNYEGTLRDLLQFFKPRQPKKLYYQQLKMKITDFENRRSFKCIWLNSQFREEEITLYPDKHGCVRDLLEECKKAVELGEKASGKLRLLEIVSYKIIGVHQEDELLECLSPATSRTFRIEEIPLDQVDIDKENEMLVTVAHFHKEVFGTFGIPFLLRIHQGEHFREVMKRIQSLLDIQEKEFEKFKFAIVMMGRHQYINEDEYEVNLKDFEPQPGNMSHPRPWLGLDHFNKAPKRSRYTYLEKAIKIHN
measurement_label: Kd (nM)
Give a bare numeral; the unit nM is implied.

Prompt line: Quick one: Kd of CGGGAAGCATATGCTACCCG (double strand) [DS site 1 20-mer] ?
Response line: 4

----------
Target: EBNA1 395-641 (Epstein-Barr virus)
Sequence: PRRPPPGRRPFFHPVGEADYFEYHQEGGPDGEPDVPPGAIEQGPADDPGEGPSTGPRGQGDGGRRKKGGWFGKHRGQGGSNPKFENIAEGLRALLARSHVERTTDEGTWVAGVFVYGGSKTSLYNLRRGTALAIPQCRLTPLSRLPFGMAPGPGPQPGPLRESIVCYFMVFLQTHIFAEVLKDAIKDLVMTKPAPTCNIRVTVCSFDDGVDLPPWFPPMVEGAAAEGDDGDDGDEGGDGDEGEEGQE
Assay: EMSA
Details: 20 mM Tris pH 7.5, 200 mM NaCl, 1 ug salmon sperm DNA, 10 fmol probe, 20 ul, room temperature 10 min; 10% polyacrylamide gel
measurement_label: pKd
Give only the number. pKd is defined as minus log10 of concentration in molar units.

Prompt line: Fill in: pKd of CGGGAAGCATATGCTACCCG (double strand) [DS site 1 20-mer] is ___
Response line: 6.63
